- target: Thymidylate synthase (Lactobacillus casei, UniProt P00469)
- Sequence (P00469 whole entry): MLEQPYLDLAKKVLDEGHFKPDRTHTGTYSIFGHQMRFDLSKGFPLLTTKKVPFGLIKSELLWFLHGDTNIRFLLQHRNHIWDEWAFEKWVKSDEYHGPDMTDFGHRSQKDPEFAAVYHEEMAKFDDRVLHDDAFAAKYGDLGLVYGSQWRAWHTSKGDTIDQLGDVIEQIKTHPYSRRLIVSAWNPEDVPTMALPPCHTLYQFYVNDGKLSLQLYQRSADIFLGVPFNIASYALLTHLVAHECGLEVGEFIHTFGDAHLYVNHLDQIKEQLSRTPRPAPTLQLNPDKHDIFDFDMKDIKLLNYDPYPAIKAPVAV
- test_name: Inhibition of MTX-resistant Lactobacillus casei thymidylate synthetase
metric: IC50 (µM)
Number in µM, nothing else.

In [3]: df
Out[3]:
                                   compound  metric  readout_units  number
0  CN(CC1=Nc2c(N)nc(N)nc2N(Cc2cccc3ccccc23)C1)c1ccc(C(=O)N[C@@H](CCC(=O)O)C(=O)O)cc1    IC50             µM      16
1  CN(CC1CNc2nc(N)nc(N)c2N1)c1ccc(C(=O)N[C@@H](CCC(=O)O)C(=O)O)cc1 (stereo partly drawn)    IC50             µM       5
2  CN(CC1=Nc2c(N)nc(N)nc2N(Cc2ccccc2)C1)c1ccc(C(=O)N[C@@H](CCC(=O)O)C(=O)O)cc1    IC50             µM       8
3  CN(CC1=Nc2c(N)nc(N)nc2N(Cc2ccc(Cl)c(Cl)c2)C1)c1ccc(C(=O)N[C@@H](CCC(=O)O)C(=O)O)cc1    IC50             µM      13
4  CCCCN1CC(CN(C)c2ccc(C(=O)N[C@@H](CCC(=O)O)C(=O)O)cc2)=Nc2c(N)nc(N)nc21    IC50             µM      19
5  CN(CC1=Nc2c(N)nc(N)nc2NC1)c1ccc(C(=O)N[C@@H](CCC(=O)O)C(=O)O)cc1    IC50             µM       1
6  CN(CC1=Nc2c(N)nc(N)nc2N(CC2CCCCC2)C1)c1ccc(C(=O)N[C@@H](CCC(=O)O)C(=O)O)cc1    IC50             µM      17

Moving on to another compound below.
# input Give Thymidylate synthase (Lactobacillus casei, UniProt P00469) IC50 for the following compound: CN(CC1CN(C)c2nc(N)nc(N)c2N1)c1ccc(C(=O)N[C@@H](CCC(=O)O)C(=O)O)cc1 (stereo partly drawn)
# output 39
